// each record: one item and its Kd for kinase enzymes (Homo sapiens)
readout-type: Kd (µM)

Below: 5 compounds and their reported Kd.
compound | unit-spec | Kd
CNCCNC(=O)c1cc(C(C)Oc2ccc(Cl)c(F)c2)c2nc(N3CCOCC3)cnc2c1 (single isomer, unassigned) [Compound 380b] | µM | 8.91
CC1CN(c2cnc3cc(C(=O)N(C)C)cc(C4CCCN4c4cc(F)cc(F)c4)c3n2)CCO1 (centres unmarked) | µM | 1.59
CC(Nc1ccc(F)c(F)c1)c1cc(C(=O)NCCO)cc2ncc(N3CCOCC3)nc12 (single isomer, unassigned) [Compound 279b] | µM | 6.46
CNCCNC(=O)c1cc([C@H](C)Oc2cccc(F)c2)c2nc(N3CCOCC3)cnc2c1 [Compound 123a] | µM | 11.5
CC(Nc1cc(F)cc(F)c1)c1cc(C(=O)NS(N)(=O)=O)cc2ncc(N3CCOCC3)nc12 (centres unmarked) [Compound 243] | µM | 0.145

[P] CC(Nc1cccc(F)c1)c1cc(C(=O)NCC(=O)O)cc2ncc(N3CCOCC3)nc12 (single isomer, unassigned) [Compound 393a]
[Q] CN(C)C(=O)c1cc(NCc2ccc(F)cc2)c2nc(N3CCOCC3)cnc2c1
[R] CC(Nc1cc(F)c(F)c(F)c1)c1cc(C(=O)NCCN(C)C)cc2ncc(N3CCOCC3)nc12 (single isomer, unassigned) [Compound 309b]
Order the records, beginning with the lowest Kd and ending with the highest. Answer by listing the labels in the requested order.
P, R, Q
(P: 1.38 µM, R: 5.62 µM, Q: 18.6 µM)

[1] Cc1c(F)cccc1CN(C)c1cc(C(=O)N2CCNC(C(F)(F)F)C2)cc2ncc(N3CCOCC3)nc12 (single isomer, unassigned) [Compound 367a]
[2] CC(Nc1ccc(F)c(F)c1)c1cc(C(=O)NCCCO)cc2ncc(N3CCOCC3)nc12 (single isomer, unassigned) [Compound 280a]
Pick one: 1 or 2 . Which one has the lower reported Kd? Answer with the label corresponding to your selection.
2

Where these numbers come from: patent US10526316B2
